Provenance of the data: ChEMBL document CHEMBL5385878

Give CC50 at 96 h for every item shown.
Assay: Cytotoxicity against human A549 cells assessed as reduction in cell viability incubated for 96 hrs by CCK-8 method
Type: toxicity, cell-based
Give bare numbers, in µM.

O=C(O)[C@@H]1CC2(CC2)CN1Nc1nc(-c2c[nH]c3ncc(F)cc23)ncc1F: 87

Now look at this entry.
Reported CC50 at 96 h ( `O=C(O)[C@@H]1C[C@@H]2CCCC[C@@H]2N1Nc1nc(-c2c[nH]c3ncc(F)cc23)ncc1F` ) = 54.1

----------
System: Influenza A virus
Test: Antiviral activity against Influenza A virus A/WSN/33(H1N1) infected in A549 cells assessed as reduction in cell cytopathic effect incubated with cells for 2 hrs prior to viral infection followed by MDCK cells addition at 24 hrs pi and measured after 72 hrs by Reed-Muench method
Type: functional, organism-based
MEASUREMENT KIND: EC50 (µM)
Answers are plain numbers, in µM.

A selection of reference data follows.
O=C(O)[C@@H]1CC2(CC2)CN1Nc1nc(-c2c[nH]c3ncc(F)cc23)ncc1F: 1.45
CCOC(=O)C1=C[C@@H](OC(CC)CC)[C@H](NC(C)=O)[C@@H](N)C1 [OSELTAMIVIR]: 0.04
O=C(O)[C@H]1C2CCC(CC2)[C@@H]1Nc1nc(-c2c[nH]c3ncc(F)cc23)ncc1F [PIMODIVIR]: 0.001
CC(C)(C)N(CC(=O)O)Nc1nc(-c2c[nH]c3ncc(F)cc23)ncc1F: 0.03

Please report EC50 for every entry that follows.
1. O=C(O)[C@@H]1CCCCN1Nc1nc(-c2c[nH]c3ncc(F)cc23)ncc1F
2. CC(C)(C)N(CC(=O)O)Nc1nc(-c2c[nH]c3ncccc23)ncc1F
3. O=C(O)[C@@H]1C[C@@H]2CCCC[C@@H]2N1Nc1nc(-c2c[nH]c3ncc(F)cc23)ncc1F

Reply text:
1: 1.15; 2: 0.17; 3: 0.05

----------
Assay: Cytotoxicity against human A549 cells assessed as reduction in cell viability incubated for 96 hrs by CCK-8 method
Format: toxicity, cell-based
Provide the reported CC50 at 96 h of each item.

Use these answered entries as a reference point.
CC(C)(C)N(CC(=O)O)Nc1nc(-c2c[nH]c3ncccc23)ncc1F: > 100 µM
O=C(O)[C@@H]1CCCCN1Nc1nc(-c2c[nH]c3ncc(F)cc23)ncc1F: > 100 µM

API: the following record is the query input.
The recorded CC50 at 96 h for entry `CC(C)(C)N(CC(=O)O)Nc1nc(-c2c[nH]c3ncc(F)cc23)ncc1F` equals > 100 µM
